Kd for assorted binders
Molecular target: T1, biotinylated GITR (human, UniProt Q9Y5U5 26-161, limits assumed, biotinylated (sites not given))
T1 construct: also called GITR-bio; Biotin-GITR
T1 sequence: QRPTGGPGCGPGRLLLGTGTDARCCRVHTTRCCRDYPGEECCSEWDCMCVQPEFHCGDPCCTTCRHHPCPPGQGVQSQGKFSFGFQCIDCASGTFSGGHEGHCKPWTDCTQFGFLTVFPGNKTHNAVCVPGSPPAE
Assay: BLI (Octet), biotin-GITR on streptavidin tips, antibody supernatant
# value in nM; strip the unit string

Observe how each entry below is paired with its result.
>>> reported("germline variant antibody 39 (H1916D09 / K1916D09) (antibody, V domains shown, IGHG1/IGKC expression vectors; measured from CHO culture supernatant; also called Antibody ID 39) VH: QVQLVQSGAEVKKPGASVKVSCKGSGYTFTGYAMHWVRQAPGQGLEWMGLIRTYSGGVSYNQKFRERATMTVDTSISTAYMELSRLRSDDTAVYYCAKSGTVRGFAYWGQGTLITVSS VL: DIVMTQSPDSLAVSLGERATINCKSSQSLLNSSNQKNYLTWYQQKPGQPPKLLIYWASTRESGVPDRFTGSGSGTDFTLTISSVQAEDVAVYHCQNEYSFPYTFGQGTKLEIK")
0.255
>>> reported("germline variant antibody 1 (H1916A01 / K1916A01) (antibody, V domains shown, IGHG1/IGKC expression vectors; measured from CHO culture supernatant; also called Antibody ID 1) VH: QVQLVQSGTEVKKPGASVKVSCKGSGYTFTEYAMYWVRQAPGQGLEWIGVIRTYSGGVTYNQKFQGRATMTVDTSISTAYMELSRLRSDDTAVYYCAKSGTVRGFAYWGQGTLVTVSS VL: DIVMTQSPDSLAVSLGERATINCKSSQSLLNSGNQKNYLTWYHQKPGQPPKMLIYWASTRESGVPDRFSGSGSGTDFTLTISSVQAEDVAVYHCQNDYSYPYTFGQGTKLEIK")
0.744

Query: Report Kd for germline variant antibody 42 (H1916E01 / K1916E01) (antibody, V domains shown, IGHG1/IGKC expression vectors; measured from CHO culture supernatant; also called Antibody ID 42) VH: QVQLVQSGTEVKKPGASVKVSCKASGYTFTDYAMYWVRQAPGQGLEWIGVIRTFSGDLTYNQKFQDRVTMTVDTSISTAYMELSRLRSDDTAVYYCAKSGTVRGFAYWGQGTLVTVSS VL: DIVMTQSPDSLAVSLGERATINCKSSQSLLNSGNQKNYLSWYQQKPGQPPKLLIYWASTRESGVPDRFSGSGSGTDFTLTISSLQAEDVAVYYCQNDYSYPYTFGQGTKLEIK please.
Response: 0.377
